All values here come from PubChem BioAssay (NCI).

TGI values, listed per item
test system: COLO 205 colon; test: NCI tumour cell line growth inhibition, 48 h
Measured endpoint: TGI

[[record]]
compound = "Cc1c(Cl)cccc1NC(=O)C(=O)c1c(O)c2ccc(O)cc2oc1=O"
result = "> 100 µM"

[[record]]
compound = "COc1cc2nc(-c3cccs3)nc(N3C(c4cc(OC)c(OC)c(OC)c4)=NNC(=O)c4ccccc43)c2cc1OC"
result = "> 100 µM"

[[record]]
compound = "CC1CN=C(c2ccc(CN3CCC(CCCC4CCN(Cc5ccc(C6=NCC(C)N6)cc5)CC4)CC3)cc2)N1 (stereo not given)"
result = "33 µM"

[[record]]
compound = "CC(CC(=O)Nc1ccc(NC(=O)CC(C)N=NC(N)=O)cc1)N=NC(N)=O (stereo not given)"
result = "> 100 µM"

[[record]]
compound = "Nc1ccn(C2CC3OCC3O2)c(=O)n1 (stereo not given)"
result = "> 100 µM"

